test system: ACHN; test: Inhibition of growth of renal cancer ACHN cell line; assay type: functional; conditions: Homo sapiens, read-out: ED50 (the source's name)
We begin with a simple list: items and their reported EC50.
Write the value in µg/mL as a bare number.

Take a look at these entries with their results.
COc1cc([C@@H]2c3cc4c(cc3[C@@H](CCN3CCN(C)CC3)C3COC(=O)[C@@H]32)OCO4)cc(OC)c1O.Cl.Cl (stereo not given in full) : 2
COc1cc([C@@H]2c3cc4c(cc3[C@@H](CCN(C)CCN3CCCCC3)C3COC(=O)[C@@H]32)OCO4)cc(OC)c1O.Cl.Cl (stereo not given in full) : 2.7
COc1cc([C@@H]2c3cc4c(cc3[C@@H](CCN(C)CCN(C)C)C3COC(=O)[C@@H]32)OCO4)cc(OC)c1O.Cl.Cl (stereo not given in full) : 2
COc1cc([C@@H]2c3cc4c(cc3[C@@H](CCN3CCC(N5CCCCC5)CC3)C3COC(=O)[C@@H]32)OCO4)cc(OC)c1O.Cl.Cl (stereo not given in full) : 1.1

Next:
**Query** Quickly give me recorded EC50 for COc1cc([C@@H]2c3cc4c(cc3[C@@H](O[C@@H]3O[C@@H]5CO[C@@H](C)O[C@H]5[C@H](O)[C@H]3O)[C@H]3COC(=O)[C@H]23)OCO4)cc(OC)c1O [ETOPOSIDE]
**Result** 13
